Source of measurements: paper doi:10.1101/2022.05.31.494145v5

Provide the recorded pKd for the entries that follow.
Assay target: CHIKV nsP1 (Chikungunya virus strain S27-African prototype, UniProt Q8JUX6)
Sequence (Q8JUX6 1-535): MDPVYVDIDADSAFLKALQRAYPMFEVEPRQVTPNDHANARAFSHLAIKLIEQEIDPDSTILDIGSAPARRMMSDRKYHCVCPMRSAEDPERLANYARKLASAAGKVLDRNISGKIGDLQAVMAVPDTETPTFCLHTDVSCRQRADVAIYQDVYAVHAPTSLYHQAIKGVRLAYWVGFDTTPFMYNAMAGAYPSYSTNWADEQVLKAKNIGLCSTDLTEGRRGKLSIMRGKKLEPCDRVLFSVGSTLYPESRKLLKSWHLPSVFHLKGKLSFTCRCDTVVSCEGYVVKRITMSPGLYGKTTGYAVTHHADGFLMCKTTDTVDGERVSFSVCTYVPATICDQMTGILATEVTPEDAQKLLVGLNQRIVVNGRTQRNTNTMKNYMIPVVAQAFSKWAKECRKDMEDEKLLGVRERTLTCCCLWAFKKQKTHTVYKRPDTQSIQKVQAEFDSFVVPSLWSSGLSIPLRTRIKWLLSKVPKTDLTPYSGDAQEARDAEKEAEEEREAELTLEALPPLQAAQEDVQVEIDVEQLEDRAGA
Assay comment: tryptophan fluorescence quenching
Assay type: binding
Answers are plain numbers, as −log10 of the molar value.

Consider the following illustrative entries.
query: For the record Nc1nc2c(ncn2[C@@H]2O[C@H](COP(=O)(O)OP(=O)(O)OP(=O)(O)O)[C@@H](O)[C@H]2O)c(=O)[nH]1 [GTP] , what value of pKd is listed for CHIKV nsP1 (Chikungunya virus strain S27-African prototype, UniProt Q8JUX6)?
result: 3.77

query: For the record O=c1c(O)c(-c2ccc(O)cc2)oc2c(O)c(O)cc(O)c12 [HC, herbacetin] , what value of pKd is listed for CHIKV nsP1 (Chikungunya virus strain S27-African prototype, UniProt Q8JUX6)?
result: 5.19

Batch: pKd for all items listed.
1. O=C(/C=C/c1ccc(O)c(O)c1)OCCc1ccccc1 [CAPE, caffeic acid phenethyl ester]
2. C[S+](CC[C@H](N)C(=O)O)C[C@H]1O[C@@H](n2cnc3c(N)ncnc32)[C@H](O)[C@@H]1O (stereo partly shown) [SAM]

result:
1. 4.51
2. 4.96

====

Assay target: DENV 3 NS5 MTase (dengue virus type 3, UniProt A9LID6)
Sequence (A9LID6 2491-2755 limits assumed): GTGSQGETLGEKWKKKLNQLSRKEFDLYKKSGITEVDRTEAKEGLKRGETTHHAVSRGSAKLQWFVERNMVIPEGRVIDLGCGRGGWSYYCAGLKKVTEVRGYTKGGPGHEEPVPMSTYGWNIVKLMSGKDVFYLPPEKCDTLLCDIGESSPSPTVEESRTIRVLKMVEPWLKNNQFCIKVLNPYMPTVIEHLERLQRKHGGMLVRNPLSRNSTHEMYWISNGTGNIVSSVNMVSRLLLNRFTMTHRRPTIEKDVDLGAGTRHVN
Readout: Kd (µM)
Answers are plain numbers, in µM.

Consider the following illustrative entries.
query: Suppose we examine the compound C[S+](CC[C@H](N)C(=O)O)C[C@H]1O[C@@H](n2cnc3c(N)ncnc32)[C@H](O)[C@@H]1O (stereo partly shown) [SAM] ; what Kd value has been reported?
result: 6.67

query: Suppose we examine the compound Nc1nc2c(ncn2[C@@H]2O[C@H](COP(=O)(O)OP(=O)(O)OP(=O)(O)O)[C@@H](O)[C@H]2O)c(=O)[nH]1 [GTP] ; what Kd value has been reported?
result: 3.03

query: Suppose we examine the compound O=C(/C=C/c1ccc(O)c(O)c1)OCCc1ccccc1 [CAPE, caffeic acid phenethyl ester] ; what Kd value has been reported?
result: 37.9

Let's switch to this compound now.
query: Suppose we examine the compound O=c1c(O)c(-c2ccc(O)cc2)oc2c(O)c(O)cc(O)c12 [HC, herbacetin] ; what Kd value has been reported?
result: 13.3
